Where do these numbers come from? They come from patent US5498618A.

Catalogue of molecules with associated IC50
testSystem: dopamine-D2 receptor (Rattus norvegicus)
Construct: Cell membrane fractions, prepared from tissue homogenates or cells; from tissue
Sequence (P61169 whole entry): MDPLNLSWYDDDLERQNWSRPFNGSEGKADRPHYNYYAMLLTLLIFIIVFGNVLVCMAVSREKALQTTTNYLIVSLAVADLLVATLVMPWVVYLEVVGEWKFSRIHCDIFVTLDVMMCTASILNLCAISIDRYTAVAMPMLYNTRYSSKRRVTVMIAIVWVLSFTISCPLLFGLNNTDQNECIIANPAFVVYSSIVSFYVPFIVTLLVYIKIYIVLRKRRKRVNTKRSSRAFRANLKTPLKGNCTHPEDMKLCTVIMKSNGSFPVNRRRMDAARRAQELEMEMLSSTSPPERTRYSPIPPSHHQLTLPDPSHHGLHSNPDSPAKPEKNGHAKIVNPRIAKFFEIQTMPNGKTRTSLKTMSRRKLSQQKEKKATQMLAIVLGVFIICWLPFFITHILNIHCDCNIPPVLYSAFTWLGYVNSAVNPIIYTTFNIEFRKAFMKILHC
assayExplanation: dopamine-D2 receptor binding, [3H]haloperidol displacement
measurementContext: read-out: IC50 (inhibition of [3H]-ligand binding) (converted)

| molecule | testSystem | IC50 (nM) |
| --- | --- | --- |
| COc1cc(N)c(Cl)cc1C(=O)NC1(C)CCN(CCCOc2ccc(F)cc2Br)CC1 | dopamine-D2 receptor (Rattus norvegicus) | 22.9 |
| COc1cc(N)c(I)cc1C(=O)NC1(C)CCN(CCCOc2ccc(F)cc2)CC1 | dopamine-D2 receptor (Rattus norvegicus) | 27.5 |
| COc1cc(N=[N+]=[N-])c(I)cc1C(=O)NC1(C)CCN(CCCOc2ccc(F)cc2)CC1 [Compound 7, hemihydrate] | dopamine-D2 receptor (Rattus norvegicus) | 66.1 |
| COc1cc(N)c(Br)cc1C(=O)NC1(C)CCN(CCCOc2ccc(F)cc2)CC1 | dopamine-D2 receptor (Rattus norvegicus) | 47.9 |
| COc1cc(N)ccc1C(=O)NC1(C)CCN(CCCOc2ccc(F)cc2)CC1 | dopamine-D2 receptor (Rattus norvegicus) | 85.1 |
| COc1cc(N=[N+]=[N-])c(Br)cc1C(=O)NC1(C)CCN(CCCOc2ccc(F)cc2)CC1 | dopamine-D2 receptor (Rattus norvegicus) | 63.1 |
| COc1cc(N)c(Cl)cc1C(=O)NC1(C)CCN(CCCOc2ccc(F)cc2)CC1 | dopamine-D2 receptor (Rattus norvegicus) | 29.5 |
